tested on: E. coli BW25113 tolCp lux reporter; assay: promoter activity interaction Z-score (Lux/OD deviation from empty-vector control); higher = stronger promoter induction by the compound; settings: 1 µg/ml; genetic background: Δrob
measured_endpoint: promoter activity interaction Z-score
Answer with a number only.

Please review the entries below; each comes with its answer.
>>> observed("CO[C@H]1/C=C/O[C@@]2(C)Oc3c(C)c(O)c4c(O)c(c(/C=N/N5CCN(C)CC5)c(O)c4c3C2=O)NC(=O)/C(C)=C\\C=C\\[C@H](C)[C@H](O)[C@@H](C)[C@@H](O)[C@@H](C)[C@H](OC(C)=O)[C@@H]1C")
-0.816
>>> observed("CC1(C)S[C@@H]2[C@H](NC(=O)[C@H](N)c3ccc(O)cc3)C(=O)N2[C@H]1C(=O)O")
0.949
>>> observed("CCC[C@@H]1C[C@@H](C(=O)N[C@@H]([C@H]2O[C@H](SC)[C@H](O)[C@@H](O)[C@H]2O)[C@H](C)Cl)N(C)C1")
-0.255

Next compound, promoter activity interaction Z-score to be filled in.
Q: Provide promoter activity interaction Z-score, recorded with E. coli BW25113 tolCp lux reporter, of NC1CONC1=O (centres undefined)
Result: -0.401

----------
tested on: E. coli BW25113 acrABp lux reporter; test: promoter activity interaction Z-score (Lux/OD deviation from empty-vector control); higher = stronger promoter induction by the compound; conditions: 0.011 µg/ml; genetic background: wild type
Documented promoter activity interaction Z-score across a set of compounds
Answer with a number only.

Please review the entries below; each comes with its answer.
>>> observed("C[C@H]1[C@H](NC(=O)/C(=N\\OC(C)(C)C(=O)O)c2csc(N)n2)C(=O)N1S(=O)(=O)O")
0.0466
>>> observed("C[C@@H]1O[C@@H]1P(=O)(O)O")
-0.0514
>>> observed("C[C@@H](O)[C@H]1C(=O)N2C(C(=O)O)=C(S[C@@H]3CN[C@H](C(=O)N(C)C)C3)[C@H](C)[C@H]12")
-0.325

Q: Quick one: give measured promoter activity interaction Z-score for COc1c(N2C[C@@H]3CCCN[C@@H]3C2)c(F)cc2c(=O)c(C(=O)O)cn(C3CC3)c12
Result: 0.0749

----------
system: E. coli BW25113 robp lux reporter; assay: promoter activity interaction Z-score (Lux/OD deviation from empty-vector control); higher = stronger promoter induction by the compound; conditions: 0.25 µg/ml; genetic background: Δrob
measured_endpoint: promoter activity interaction Z-score
Answer with a number only.

>>> observed("N=C(NCCCCCCNC(=N)NC(=N)Nc1ccc(Cl)cc1)NC(=N)Nc1ccc(Cl)cc1 [Chlorhexidine]")
0.48
>>> observed("CO[C@@]12[C@H](COC(N)=O)C3=C(C(=O)C(C)=C(N)C3=O)N1C[C@@H]1N[C@@H]12 [Mitomycin C]")
0.453
>>> observed("CN(C)c1ccc(O)c2c1C[C@H]1C[C@H]3[C@H](N(C)C)C(O)=C(C(N)=O)C(=O)[C@@]3(O)C(O)=C1C2=O [Minocycline]")
1.12

Q: Provide promoter activity interaction Z-score, recorded with E. coli BW25113 robp lux reporter, of C/C(=C\C(=O)OCCCCCCCCC(=O)O)C[C@@H]1OC[C@H](C[C@@H]2O[C@H]2[C@@H](C)[C@H](C)O)[C@@H](O)[C@H]1O [Pseudomonic acid]
Result: 0.357

Q: Provide promoter activity interaction Z-score, recorded with E. coli BW25113 robp lux reporter, of CC1(C)S[C@@H]2[C@H](NC(=O)[C@H](N)c3ccc(O)cc3)C(=O)N2[C@H]1C(=O)O [Amoxicillin]
Result: -0.226

----------
Documented promoter activity interaction Z-score across a set of molecules
tested on: E. coli BW25113 acrABp lux reporter; assay: promoter activity interaction Z-score (Lux/OD deviation from empty-vector control); higher = stronger promoter induction by the compound; conditions: 0.25 µg/ml; genetic background: ΔsoxS
Answer with a number only.

Please review the entries below; each comes with its answer.
>>> observed("CN(C)c1ccc(O)c2c1C[C@H]1C[C@H]3[C@H](N(C)C)C(O)=C(C(N)=O)C(=O)[C@@]3(O)C(O)=C1C2=O [Minocycline]")
0.196
>>> observed("C/C(=C\\C(=O)OCCCCCCCCC(=O)O)C[C@@H]1OC[C@H](C[C@@H]2O[C@H]2[C@@H](C)[C@H](C)O)[C@@H](O)[C@H]1O [Pseudomonic acid]")
-0.332
>>> observed("N=C(NCCCCCCNC(=N)NC(=N)Nc1ccc(Cl)cc1)NC(=N)Nc1ccc(Cl)cc1 [Chlorhexidine]")
0.108
>>> observed("CC1(C)S[C@@H]2[C@H](NC(=O)[C@H](N)c3ccc(O)cc3)C(=O)N2[C@H]1C(=O)O [Amoxicillin]")
-0.0223

Next molecule, promoter activity interaction Z-score to be filled in.
Q: Quick one: give measured promoter activity interaction Z-score for CO[C@@]12[C@H](COC(N)=O)C3=C(C(=O)C(C)=C(N)C3=O)N1C[C@@H]1N[C@@H]12 [Mitomycin C]
Result: -0.0948

----------
tested on: E. coli BW25113 robp lux reporter; test: promoter activity interaction Z-score (Lux/OD deviation from empty-vector control); higher = stronger promoter induction by the compound; settings: 0.25 µg/ml; genetic background: ΔmarA
Documented promoter activity interaction Z-score across a set of compounds
Answer with a number only.

Please review the entries below; each comes with its answer.
>>> observed("CN(C)c1ccc(O)c2c1C[C@H]1C[C@H]3[C@H](N(C)C)C(O)=C(C(N)=O)C(=O)[C@@]3(O)C(O)=C1C2=O [Minocycline]")
0.349
>>> observed("C/C(=C\\C(=O)OCCCCCCCCC(=O)O)C[C@@H]1OC[C@H](C[C@@H]2O[C@H]2[C@@H](C)[C@H](C)O)[C@@H](O)[C@H]1O [Pseudomonic acid]")
0.421

Q: Quick one: give measured promoter activity interaction Z-score for CC1(C)S[C@@H]2[C@H](NC(=O)[C@H](N)c3ccc(O)cc3)C(=O)N2[C@H]1C(=O)O [Amoxicillin]
Result: -0.028

Q: Quick one: give measured promoter activity interaction Z-score for N=C(NCCCCCCNC(=N)NC(=N)Nc1ccc(Cl)cc1)NC(=N)Nc1ccc(Cl)cc1 [Chlorhexidine]
Result: -0.53

----------
tested on: E. coli BW25113 robp lux reporter; assay: promoter activity interaction Z-score (Lux/OD deviation from empty-vector control); higher = stronger promoter induction by the compound; conditions: 0.011 µg/ml; genetic background: ΔmarA
Documented promoter activity interaction Z-score across a set of compounds
Answer with a number only.

Q: Quick one: give measured promoter activity interaction Z-score for COc1c(N2C[C@@H]3CCCN[C@@H]3C2)c(F)cc2c(=O)c(C(=O)O)cn(C3CC3)c12 [Moxifloxacin]
Result: 0.716

Q: Quick one: give measured promoter activity interaction Z-score for C[C@@H](O)[C@H]1C(=O)N2C(C(=O)O)=C(S[C@@H]3CN[C@H](C(=O)N(C)C)C3)[C@H](C)[C@H]12 [Meropenem]
Result: -0.585

Q: Quick one: give measured promoter activity interaction Z-score for C[C@H]1[C@H](NC(=O)/C(=N\OC(C)(C)C(=O)O)c2csc(N)n2)C(=O)N1S(=O)(=O)O [Aztreonam]
Result: 1.33

Q: Quick one: give measured promoter activity interaction Z-score for C[C@@H]1O[C@@H]1P(=O)(O)O [Fosfomycin]
Result: 0.245
